- MEASUREMENT_TARGET: UniProt Q9D2Y4
- Sequence (Q9D2Y4 whole entry): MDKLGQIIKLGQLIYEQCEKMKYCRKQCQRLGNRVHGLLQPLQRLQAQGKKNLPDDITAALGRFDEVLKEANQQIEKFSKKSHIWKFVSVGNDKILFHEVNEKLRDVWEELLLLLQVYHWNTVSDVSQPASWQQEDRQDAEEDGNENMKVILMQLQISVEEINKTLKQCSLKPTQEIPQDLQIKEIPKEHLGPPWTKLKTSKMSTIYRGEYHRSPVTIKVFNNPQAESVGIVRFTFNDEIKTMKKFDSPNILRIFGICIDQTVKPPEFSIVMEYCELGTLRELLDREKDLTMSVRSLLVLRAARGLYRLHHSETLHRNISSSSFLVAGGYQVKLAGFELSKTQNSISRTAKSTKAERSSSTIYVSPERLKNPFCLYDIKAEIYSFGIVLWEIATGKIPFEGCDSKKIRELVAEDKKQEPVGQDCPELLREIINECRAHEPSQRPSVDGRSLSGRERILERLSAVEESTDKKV
- TEST_DETAILS: Degradation assay: endogenous MLKL in MDF (western blot)
- CONDITIONS_USED: MDF cells, 24 h incubation with compound, MLKL adjusted for loading with GAPDH, normalized to DMSO only control, read-out: Degradation of endogenous MLKL in MDF (DC50 cell-based assay)
PROPERTY: DC50

COMPOUND | PROPERTY | ASSAY_RESULT
C[C@H](Oc1cc(-c2nn(C)c3c(-c4cnn(CCCCCCCOc5cccc6c5C(=O)N(C5CCC(=O)NC5=O)C6=O)c4)cnc(N)c23)ccc1NS(=O)(=O)C(F)F)c1ccc(F)cc1 (stereo partly shown) [Compound 1031] | DC50 | < 1000 nM
Cc1ncsc1-c1ccc(CNC(=O)[C@@H]2C[C@@H](O)CN2C(=O)[C@@H](NC(=O)CCCCCOc2ccc(-c3cnc(N)c4c(-c5ccc(NS(=O)(=O)C(F)F)c(O[C@@H](C)c6ccc(F)cc6)c5)nn(C)c34)cn2)C(C)(C)C)cc1 [Compound 1050] | DC50 | 1000 to 10000 nM
C[C@H](Oc1cc(-c2nn(C)c3c(-c4cnn(C5CCN(CC6CCN(c7cccc8c7C(=O)N(C7CCC(=O)NC7=O)C8=O)C6)CC5)c4)cnc(N)c23)ccc1NS(=O)(=O)C(F)F)c1ccc(F)cc1 (stereo partly shown) [Compound 1083] | DC50 | < 1000 nM

Supply recorded DC50 for C[C@H](Oc1cc(-c2nn(C)c3c(-c4cnn(C5CCN(C(=O)C6CC7(C6)CN(c6cccc8c6C(=O)N(C6CCC(=O)NC6=O)C8=O)C7)CC5)c4)cnc(N)c23)ccc1NS(=O)(=O)C(F)F)c1ccc(F)cc1 (stereo partly shown) [Compound 1074] here.
< 1000 nM
